propertyLabel: melting point

Given COC(=O)C(=CNc1ncnc2ccc(NC(=O)C(C)(C)C)cc12)C(=O)OC , state its recorded melting point.
189 to 190 °C

* * *

Attribute: melting point

Would you please look over these solved cases?
[[record]]
compound = "CC1CCc2c(N3CCC(N(C)C)CC3)c(F)cc3c(=O)c(C(=O)O)cn1c23 (stereo unspecified)"
propertylabel = "melting point"
result = "259 to 261 °C"

[[record]]
compound = "Cc1cn(C2CC(O)C(CNC(=O)c3ccc(Br)cc3)O2)c(=O)[nH]c1=O (stereo unspecified)"
propertylabel = "melting point"
result = "250 to 252 °C"

[[record]]
compound = "COc1cc([N+](=O)[O-])c2nccc(C)c2c1Oc1cccc(C(F)(F)F)c1"
propertylabel = "melting point"
result = "206 to 208 °C"

[[record]]
compound = "O=C1[C@@H](O)CCN1CC#CCn1ccnc1"
propertylabel = "melting point"
result = "127 to 128 °C"

[[record]]
compound = "CCCCC(=O)N(CCCCO)Cc1ccc(-c2ccccc2-c2nnn[nH]2)cc1"
propertylabel = "melting point"
result = "110 to 111 °C"


Given CC(C)(C)C(NC(=O)CCCc1cccnc1)NC(=NC#N)Nc1cccc2ncccc12 (stereo unspecified) , state its recorded melting point.
181 to 182 °C
